Items are presented alongside their recorded solubility (mole fraction).
- protocol-conditions: in acetone, 298.15 K
endpoint-label: solubility (mole fraction)

# chemical-smiles, endpoint-label, quantitative-result
data = [
    ("COc1c(NS(=O)(=O)c2ccc(F)cc2)cc(-c2ccc3nccc(N4CCOCC4)c3c2)cc1C(N)=O", "solubility (mole fraction)", 0.000704),
    ("COc1c(NS(=O)(=O)c2ccc(F)cc2)cc(-c2ccc3ncnc(N4CCOCC4)c3c2)cc1C(N)=O", "solubility (mole fraction)", 0.000352),
    ("COc1c(NS(=O)(=O)c2ccc(C)cc2)cc(-c2ccc3ncnc(N4CCOCC4)c3c2)cc1C(N)=O", "solubility (mole fraction)", 0.000798),
]
